- Target: Farnesyl protein transferase (FPT) (Rattus norvegicus, UniProt Q02293+Q04631)
- Construct: Farnesyl protein transferase (FPT) was partially purified from rat brain; from tissue; host or cells: rat brain
- Protocol Summary: In vitro enzyme assay: inhibition of farnesyl protein transferase (transfer of [3H]farnesyl from [3H]farnesyl pyrophosphate to Ras-CVLS)
- Type: biochemical
- Settings: @ 0.06 µg/µL
Collected FPT inhibition (percent inhibition) values appear next to each entry.

Molecule: O=C(CCCC(=O)N1CCC(C2c3ncc(Br)cc3CCc3cc(Cl)cc(Cl)c32)CC1)NCc1ccccc1 (single isomer, unassigned)
FPT inhibition (percent inhibition) [%@ 0.06 µg/µL]: 35
//
Molecule: O=C(NCCCCC(=O)N1CCC(C2c3ncc(Br)cc3CCc3cc(Cl)cc(Cl)c32)CC1)c1ccccc1 (single isomer, unassigned)
FPT inhibition (percent inhibition) [%@ 0.06 µg/µL]: 41
//
Molecule: O=C(CCCC(=O)N1CCC(C2c3ncc(Br)cc3CCc3cc(Cl)cc(Cl)c32)CC1)Nc1ccccc1 (single isomer, unassigned)
FPT inhibition (percent inhibition) [%@ 0.06 µg/µL]: 21
//
Molecule: O=C(NCCCC(=O)N1CCC(C2c3ncc(Br)cc3CCc3cc(Cl)cc(Cl)c32)CC1)c1ccncc1 (single isomer, unassigned)
FPT inhibition (percent inhibition) [%@ 0.06 µg/µL]: 20

* * *

- Target: Farnesyl protein transferase (FPT) (Rattus norvegicus, UniProt Q02293+Q04631)
- Construct: Farnesyl protein transferase (FPT) was partially purified from rat brain; from tissue; host or cells: rat brain
- Protocol Summary: In vitro enzyme assay: inhibition of farnesyl protein transferase (transfer of [3H]farnesyl from [3H]farnesyl pyrophosphate to Ras-CVLS)
- Type: biochemical
- Settings: FPT INHIBITION; read-out: FPT IC50
pIC50: −log10 of the molar value.
Measurement Type: pIC50

Molecule: CC(=O)NCCCC(=O)N1CCC(C2c3ncc(Br)cc3CCc3cc(Cl)cc(Cl)c32)CC1 (single isomer, unassigned) [Example 15]
Target: Farnesyl protein transferase (FPT) (Rattus norvegicus, UniProt Q02293+Q04631)
Measurement Type: pIC50
Result: 7.20
//
Molecule: NC(=O)CCCCCC(=O)N1CCC([C@H]2c3ncc(Br)cc3CCc3cc(Cl)cc(Br)c32)CC1 [Example 59]
Target: Farnesyl protein transferase (FPT) (Rattus norvegicus, UniProt Q02293+Q04631)
Measurement Type: pIC50
Result: 8.48
//
Molecule: CN(C)CC(=O)N1CCC(C2c3ncc(Br)cc3CCc3cc(Cl)cc(Cl)c32)CC1 (single isomer, unassigned) [Example 4]
Target: Farnesyl protein transferase (FPT) (Rattus norvegicus, UniProt Q02293+Q04631)
Measurement Type: pIC50
Result: 6.42
//
Molecule: NC(=O)CCCC(=O)N1CCC([C@H]2c3ncc(Br)cc3CCc3cc(Cl)cc(Br)c32)CC1 [Example 53]
Target: Farnesyl protein transferase (FPT) (Rattus norvegicus, UniProt Q02293+Q04631)
Measurement Type: pIC50
Result: 8.00

* * *

- Target: Farnesyl protein transferase (FPT) (Rattus norvegicus, UniProt Q02293+Q04631)
- Construct: Farnesyl protein transferase (FPT) was partially purified from rat brain; from tissue; host or cells: rat brain
- Protocol Summary: In vitro enzyme assay: inhibition of farnesyl protein transferase (transfer of [3H]farnesyl from [3H]farnesyl pyrophosphate to Ras-CVLS)
- Type: biochemical
pIC50: −log10 of the molar value.

Compound: CN(C)CCCC(=O)N1CCC(C2c3ncc(Br)cc3CCc3cc(Cl)cc(Cl)c32)CC1 (single isomer, unassigned)
Target: Farnesyl protein transferase (FPT) (Rattus norvegicus, UniProt Q02293+Q04631)
pIC50: 8.19
